This listing pairs variants with measured yeast fitness.
B1: tRNA (parent)
chain: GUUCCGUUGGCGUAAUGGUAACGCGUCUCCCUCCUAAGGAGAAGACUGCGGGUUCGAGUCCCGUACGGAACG

variants of: B1; experiment: yeast fitness relative to wild type (ratio to wild type); higher = fitter; tRNA-Arg(CCU), competitive growth, 37 C, YPD
Fewer inactive variants are shown than the library holds.

{"Mutation": "C27A C34G A43U A57C", "yeast fitness": "≤ 0.5"}
{"Mutation": "A45U G48C A57C G67U", "yeast fitness": "≤ 0.5"}
{"Mutation": "C24G A37C A57U", "yeast fitness": "≤ 0.5"}
{"Mutation": "C24U C27G G38C A57U C60A C62G", "yeast fitness": "≤ 0.5"}
{"Mutation": "U7A C31U A40U", "yeast fitness": "≤ 0.5"}
{"Mutation": "G25C C29U C34G", "yeast fitness": "≤ 0.5"}
{"Mutation": "A20C C34A G63C", "yeast fitness": "≤ 0.5"}
{"Mutation": "C5G C61U A69C", "yeast fitness": "≤ 0.5"}
{"Mutation": "C29U C31U G41C A65G", "yeast fitness": 0.609}
{"Mutation": "G6A C11U G68A", "yeast fitness": "≤ 0.5"}
{"Mutation": "G17C A20C C49U G52A C61A C62G", "yeast fitness": "≤ 0.5"}
{"Mutation": "U13A G18A", "yeast fitness": 0.705}
{"Mutation": "G9A A14U A21U A65G", "yeast fitness": 0.556}
{"Mutation": "U8A A20G U26C A40C", "yeast fitness": 0.617}
{"Mutation": "A15U U26A C55A A70C", "yeast fitness": "≤ 0.5"}
{"Mutation": "U16C C31G G39A A57U", "yeast fitness": 0.692}
{"Mutation": "U26G C62G", "yeast fitness": 0.755}
{"Mutation": "C5A C11U A21G C24A G52A C60A A69G", "yeast fitness": "≤ 0.5"}
{"Mutation": "C31A A65U", "yeast fitness": 0.725}
{"Mutation": "A40U U47C A65C", "yeast fitness": 0.534}
{"Mutation": "U28G A36G G51A", "yeast fitness": "≤ 0.5"}
{"Mutation": "G12A U19C G23A U32C A43C G48C U64C", "yeast fitness": "≤ 0.5"}
{"Mutation": "G10C A70G", "yeast fitness": 0.644}
{"Mutation": "U32C C33U C62U A65G", "yeast fitness": 0.58}
{"Mutation": "U2G C62G A69C", "yeast fitness": "≤ 0.5"}
{"Mutation": "U8A A14C C31A G41C C49A G56A G63A G67A", "yeast fitness": "≤ 0.5"}
{"Mutation": "U3C C11U U16C C30G C31G A37U", "yeast fitness": "≤ 0.5"}
{"Mutation": "U26G C29G A45C", "yeast fitness": "≤ 0.5"}
{"Mutation": "A15U A21C", "yeast fitness": 0.611}
{"Mutation": "C5G A14U G18A A21U A42G G68A", "yeast fitness": 0.522}
{"Mutation": "C27G U53G", "yeast fitness": "≤ 0.5"}
{"Mutation": "A14C A36U C60U A69U", "yeast fitness": "≤ 0.5"}
{"Mutation": "U8A G17A C31U C33U C34U C46G C62A", "yeast fitness": "≤ 0.5"}
{"Mutation": "C4G C62A G67C", "yeast fitness": "≤ 0.5"}
{"Mutation": "A45U G51C G68A", "yeast fitness": "≤ 0.5"}
{"Mutation": "C4A A21C U54A", "yeast fitness": "≤ 0.5"}
{"Mutation": "C4A C31A G56A", "yeast fitness": 0.649}
{"Mutation": "C22G C62U G68C", "yeast fitness": "≤ 0.5"}
{"Mutation": "A21C G25A C30A A37U C66A", "yeast fitness": "≤ 0.5"}
{"Mutation": "C5G A15C A21U C24U A57G G67U", "yeast fitness": "≤ 0.5"}
{"Mutation": "A36U A40C", "yeast fitness": 0.54}
{"Mutation": "U3C U26A C31U", "yeast fitness": 1.02}
{"Mutation": "C5U C29U A43G", "yeast fitness": 0.632}
{"Mutation": "C29G C30G C49A G56C C61U", "yeast fitness": 0.982}
{"Mutation": "G51U A69C", "yeast fitness": 0.824}
{"Mutation": "U32G G48C A65C", "yeast fitness": 0.574}
{"Mutation": "A14G C24U A57G", "yeast fitness": 0.639}
{"Mutation": "C5U U16C G18A C30A G58A G68U", "yeast fitness": "≤ 0.5"}
{"Mutation": "A14C U19A U59C A69G", "yeast fitness": 0.652}
{"Mutation": "C4U C22U A45G C66G", "yeast fitness": "≤ 0.5"}
{"Mutation": "U3A C4U U8A G10A A21G C49G A57G G67U", "yeast fitness": 0.655}
{"Mutation": "U53C C62U", "yeast fitness": 0.737}
{"Mutation": "G6A C30A C31G G39C", "yeast fitness": 0.534}
{"Mutation": "A40C A57U", "yeast fitness": 0.789}
{"Mutation": "U3G C24U C27G C30A A65U A69U", "yeast fitness": "≤ 0.5"}
{"Mutation": "U19C G48C", "yeast fitness": 0.922}
{"Mutation": "C22U G68A", "yeast fitness": 0.852}
{"Mutation": "G10A C31A C55U G63A", "yeast fitness": "≤ 0.5"}
{"Mutation": "G18A U59C A69G", "yeast fitness": "≤ 0.5"}
{"Mutation": "A21C U32A U35C", "yeast fitness": "≤ 0.5"}
{"Mutation": "G9A A40U C62G", "yeast fitness": 0.593}
{"Mutation": "A36G G68C", "yeast fitness": 0.779}
{"Mutation": "A20U G38C G50C A65C", "yeast fitness": "≤ 0.5"}
{"Mutation": "U19A G39C A69U", "yeast fitness": 0.574}
{"Mutation": "C30G C34G G39C A69C", "yeast fitness": "≤ 0.5"}
{"Mutation": "G6C G39C C55G", "yeast fitness": "≤ 0.5"}
{"Mutation": "C4U C5A A40C G68C", "yeast fitness": "≤ 0.5"}
{"Mutation": "C49U G51A A69U", "yeast fitness": 0.573}
